Data origin, for the record: patent US20250018046A1

- target: IRAK4 (Homo sapiens)
- Construct: knocking-in a HiBiT fusion tag into the C-terminal of the IRAK4 gene in 293T cells; host or cells: 293T cells, knock-in of HiBiT at the endogenous IRAK4 locus
- Sequence (Q9NWZ3 whole entry, the tested form may be a part): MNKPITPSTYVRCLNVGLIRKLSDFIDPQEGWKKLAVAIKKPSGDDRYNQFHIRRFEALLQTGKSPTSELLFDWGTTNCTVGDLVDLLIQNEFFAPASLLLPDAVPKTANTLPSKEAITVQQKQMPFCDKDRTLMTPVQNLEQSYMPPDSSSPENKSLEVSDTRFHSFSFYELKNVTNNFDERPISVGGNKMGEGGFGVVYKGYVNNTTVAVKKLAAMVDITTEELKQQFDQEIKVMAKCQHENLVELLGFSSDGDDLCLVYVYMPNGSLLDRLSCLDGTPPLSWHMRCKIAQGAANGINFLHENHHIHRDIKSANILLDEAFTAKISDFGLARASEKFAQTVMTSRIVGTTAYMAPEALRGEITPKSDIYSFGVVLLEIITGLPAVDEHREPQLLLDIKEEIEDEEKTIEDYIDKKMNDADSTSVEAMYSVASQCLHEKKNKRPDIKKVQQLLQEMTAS
- protocol: IRAK4 degradation assay using the HiBiT Method
- Format: cell-based
- condition.summary: 293T cells expressing HiBiT-tagged IRAK4; 6-hour incubation; Nano-Glo HiBiT Lytic Assay luminescence
test.readout: DC50

[
  {
    "compound": "CC(C)Oc1cc2nc(C3CCN(C(=O)C4CCN(C(=O)c5ccc(OC6CCC(=O)NC6=O)cc5)CC4)CC3)cn2cc1NC(=O)c1cccc(C(F)(F)F)n1 (centres unmarked)",
    "target": "IRAK4 (Homo sapiens)",
    "test.readout": "DC50",
    "experimental.value": "500 to 1000 nM"
  },
  {
    "compound": "CC(C)Oc1cc2nc(C3CCN(CCc4ccc(NC5CCC(=O)NC5=O)cc4)CC3)cn2cc1NC(=O)c1cccc(C(F)(F)F)n1 (centres unmarked)",
    "target": "IRAK4 (Homo sapiens)",
    "test.readout": "DC50",
    "experimental.value": "10 to 100 nM"
  },
  {
    "compound": "CC(C)Oc1cc2nc(C3CCN(CC(=O)N4CCC(c5cccc(NC6CCC(=O)NC6=O)c5F)CC4)CC3)cn2cc1NC(=O)c1cccc(C(F)(F)F)n1 (centres unmarked)",
    "target": "IRAK4 (Homo sapiens)",
    "test.readout": "DC50",
    "experimental.value": "100 to 500 nM"
  }
]

Tell us which DC50 value is on record for CC(C)Oc1cc2nc(C3CCN(CC(=O)N4CCC(c5ccc(C6CCC(=O)NC6=O)cc5)CC4)CC3)cn2cc1NC(=O)c1cccc(C(F)(F)F)n1 (centres unmarked) 10 to 100 nM

Tell us which DC50 value is on record for CC(C)Oc1cn2cc(C3CCN(CC(=O)N4CCC(c5ccc(NC6CCC(=O)NC6=O)cc5)CC4)CC3)nc2cc1NC(=O)c1cccc(C(F)(F)F)n1 (single isomer, unassigned) [Example 15] 10 to 100 nM

Tell us which DC50 value is on record for CC(C)Oc1cc2nc(C3CCN(CC(=O)N4CCC(c5ccc(NC6CCC(=O)NC6=O)cc5)CC4)CC3)cn2cc1NC(=O)c1ccccn1 (centres unmarked) 10 to 100 nM

Tell us which DC50 value is on record for CC(C)Oc1cc2nc(CC3CN(C(=O)CN4CCC(c5ccc(C6CCC(=O)NC6=O)cc5)CC4)C3)cn2cc1NC(=O)c1cccc(C(F)(F)F)n1 (centres unmarked) 100 to 500 nM

Tell us which DC50 value is on record for CC(C)Oc1cc2nc(C3CCN(CC(=O)N4CCC(c5ccc(NC6CCC(=O)NC6=O)cc5)CC4)CC3)cn2cc1NC(=O)c1ccc(F)cc1F (centres unmarked) 10 to 100 nM

Tell us which DC50 value is on record for CC(C)Oc1cc2nc([C@H]3CC[C@H](CN(C)C4CCN(c5cccc(NC6CCC(=O)NC6=O)c5)CC4)CC3)cn2cc1NC(=O)c1cccc(C(F)(F)F)n1 (some centres unmarked) 100 to 500 nM

Tell us which DC50 value is on record for CC(C)Oc1cc2nc([C@H]3CC[C@H](CN4CCC(c5ccc(C6CCC(=O)NC6=O)cc5F)CC4)CC3)cn2cc1NC(=O)c1cccc(C(F)(F)F)n1 (some centres unmarked) 100 to 500 nM

Tell us which DC50 value is on record for CC(C)Oc1cc2nc(C3CCN(C(=O)C4CC5(CCCN5C(=O)c5ccc(OC6CCC(=O)NC6=O)cc5)C4)CC3)cn2cc1NC(=O)c1cccc(C(F)(F)F)n1 (centres unmarked) 100 to 500 nM

Tell us which DC50 value is on record for CC(C)Oc1cc2nc(C3CCN(CC(=O)N4CCN(CCCc5ccc(NC6CCC(=O)NC6=O)cc5)CC4)CC3)cn2cc1NC(=O)c1cccc(C(F)(F)F)n1 (centres unmarked) 100 to 500 nM

Tell us which DC50 value is on record for CC(C)Oc1cc2nc(CC3CCN(C(=O)CN4CCC(c5ccc(C6CCC(=O)NC6=O)cc5)CC4)CC3)cn2cc1NC(=O)c1cccc(C(F)(F)F)n1 (centres unmarked) 10 to 100 nM

Tell us which DC50 value is on record for "CC(C)Oc1cc2nc(C3CCN(CC(=O)N4CCN(c5ccc6c(N7CCC(=O)NC7=O)nn(C)c6c5)CC4)CC3)cn2cc1NC(=O)c1cccc(C(F)(F)F)n1" 100 to 500 nM

Tell us which DC50 value is on record for CC(C)Oc1cc2nc(C3CCCN(C(=O)CN4CCC(c5ccc(C6CCC(=O)NC6=O)cc5)CC4)C3)cn2cc1NC(=O)c1cccc(C(F)(F)F)n1 (centres unmarked) 100 to 500 nM

Tell us which DC50 value is on record for CC(C)Oc1cc2nc([C@H]3CC[C@H](CN(C)C4CCN(Cc5cccc(NC6CCC(=O)NC6=O)c5)CC4)CC3)cn2cc1NC(=O)c1cccc(C(F)(F)F)n1 (some centres unmarked) > 1000 nM

Tell us which DC50 value is on record for CC(C)Oc1cc2nc(C3CCN(C(=O)c4ccccc4CNC(=O)c4ccc(OC5CCC(=O)NC5=O)cc4)CC3)cn2cc1NC(=O)c1cccc(C(F)(F)F)n1 (centres unmarked) 100 to 500 nM

Tell us which DC50 value is on record for CC(C)Oc1cc2nn(C3CCN(C(=O)CN4CCC(c5ccc(NC6CCC(=O)NC6=O)cc5)CC4)CC3)cc2cc1NC(=O)c1cccc(C(F)(F)F)n1 (centres unmarked) 10 to 100 nM

Tell us which DC50 value is on record for CC(C)Oc1cc2nc(C3CCN(CC(=O)N4CCN(c5ccc(OC6CCC(=O)NC6=O)cc5)CC4)CC3)cn2cc1NC(=O)c1cccc(C(F)(F)F)n1 (centres unmarked) 10 to 100 nM

Tell us which DC50 value is on record for CC(C)Oc1cc2nc(C3CCN(CCC(=O)N4CCC(c5ccc(NC6CCC(=O)NC6=O)cc5)CC4)CC3)cn2cc1NC(=O)c1cccc(C(F)(F)F)n1 (centres unmarked) 100 to 500 nM
